Tested Target: T1, CD3 epsilon homodimer protein (UniProt P07766 23-126)
T1 construct: also called CD3 (CD3 epsilon)
T1 sequence (P07766 23-126): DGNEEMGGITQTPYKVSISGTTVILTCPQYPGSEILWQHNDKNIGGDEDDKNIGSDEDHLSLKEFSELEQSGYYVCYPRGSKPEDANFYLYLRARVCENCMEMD
Method Summary: SPR, antibody over immobilised CD3e homodimer;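 further: SPR at 25 °C with CD3 epsilon homodimer amine-coupled to a CM4 sensor chip and antibody flowed over as analyte in HBS-EP+ running buffer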
Attribute: KD ratio to GLS3000
Please respond with just the number, no unit label.

A selection of reference data follows.
* CE115HA000/GLS3000 N53S (antibody, IgG1, name in Kabat numbering, V domains shown, one-arm IgG1) VH: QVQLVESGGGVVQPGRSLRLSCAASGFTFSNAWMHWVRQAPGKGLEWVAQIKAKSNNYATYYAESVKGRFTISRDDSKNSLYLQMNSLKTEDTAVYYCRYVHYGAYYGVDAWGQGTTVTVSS VL: DIVMTQSPLSLPVTPGEPASISCRSSQSLVHSNRNTYLHWYQQKPGQAPRLLIYKVSSRFSGVPDRFSGSGSGTDFTLKISRVEAEDVGVYYCGQGTQVPYTFGQGTKLEIK | 0.88
* CE115HA000/GLS3000 H34W (antibody, IgG1, name in Kabat numbering, V domains shown, one-arm IgG1) VH: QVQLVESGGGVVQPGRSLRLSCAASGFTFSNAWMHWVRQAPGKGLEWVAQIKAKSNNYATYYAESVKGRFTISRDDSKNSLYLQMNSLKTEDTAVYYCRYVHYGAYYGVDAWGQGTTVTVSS VL: DIVMTQSPLSLPVTPGEPASISCRSSQSLVHSNRNTYLWWYQQKPGQAPRLLIYKVSNRFSGVPDRFSGSGSGTDFTLKISRVEAEDVGVYYCGQGTQVPYTFGQGTKLEIK | 8.45

Now for the binder whose KD ratio to GLS3000 we want.
Query :: Using the record for CE115HA000/GLS3000 Q27P (antibody, IgG1, name in Kabat numbering, V domains shown, one-arm IgG1) VH: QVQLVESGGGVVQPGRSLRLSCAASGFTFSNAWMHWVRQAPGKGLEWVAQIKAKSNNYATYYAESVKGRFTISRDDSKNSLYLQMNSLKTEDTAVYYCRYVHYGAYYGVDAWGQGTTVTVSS VL: DIVMTQSPLSLPVTPGEPASISCRSSPSLVHSNRNTYLHWYQQKPGQAPRLLIYKVSNRFSGVPDRFSGSGSGTDFTLKISRVEAEDVGVYYCGQGTQVPYTFGQGTKLEIK , report its KD ratio to GLS3000.
Result :: 2.16
